MEASURED_TARGET: Glutaminase kidney isoform, mitochondrial (Homo sapiens, UniProt O94925)
Sequence (O94925 whole entry): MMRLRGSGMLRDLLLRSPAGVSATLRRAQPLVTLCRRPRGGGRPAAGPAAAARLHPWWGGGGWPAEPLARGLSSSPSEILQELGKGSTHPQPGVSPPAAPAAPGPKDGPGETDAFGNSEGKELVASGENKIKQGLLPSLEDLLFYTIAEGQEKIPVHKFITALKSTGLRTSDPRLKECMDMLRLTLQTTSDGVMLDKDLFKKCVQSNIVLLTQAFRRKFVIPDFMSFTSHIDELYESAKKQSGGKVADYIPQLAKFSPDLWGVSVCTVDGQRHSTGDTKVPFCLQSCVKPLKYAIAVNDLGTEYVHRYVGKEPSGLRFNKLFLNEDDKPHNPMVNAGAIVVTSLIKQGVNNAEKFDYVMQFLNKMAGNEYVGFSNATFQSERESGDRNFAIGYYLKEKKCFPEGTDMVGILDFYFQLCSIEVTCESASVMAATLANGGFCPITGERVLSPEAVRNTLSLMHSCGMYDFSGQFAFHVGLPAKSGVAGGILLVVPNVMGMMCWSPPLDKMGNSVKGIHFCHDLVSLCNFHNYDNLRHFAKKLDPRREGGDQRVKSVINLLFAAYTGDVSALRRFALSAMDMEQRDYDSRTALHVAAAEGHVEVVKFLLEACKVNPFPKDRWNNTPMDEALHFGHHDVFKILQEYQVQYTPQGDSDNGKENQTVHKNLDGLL
ASSAY_DETAILS: Inhibition of recombinant human GLS1 expressed in Escherichia coli strain BL21 (DE3) preincubated for 10 mins before glutamine addition and measured after 60 mins by bovine liver glutamate dehydrogenase based coupled enzyme assay
pIC50: −log10 of the molar value.
PROPERTY: pIC50

>>> recorded_result("O=C1Cc2ccccc2OCCCC/C=C/CCCCOc2cccc(c2)CC(=O)Nc2nnc(s2)CCCCc2ccc(nn2)N1")
7.43
>>> recorded_result("O=C1Cc2ccc(cc2)OCCC/C=C/CCCOc2ccc(cc2)CC(=O)Nc2nnc(s2)CCCCc2nnc(s2)N1")
5.33

a. O=C1Cc2cccc(c2)OCC/C=C/CCOc2cccc(c2)CC(=O)NC2=NN=C(CCCCC3=NN=C(N1)S3)S2
b. O=C1CC/C=C/CCC(=O)Nc2cccc(c2)CC(=O)Nc2nnc(s2)CCCCc2ccc(nn2)NC(=O)Cc2cccc(c2)N1
c. O=C1Cc2cccc(c2)OCCCC/C=C/CCCCOc2cccc(c2)CC(=O)NC2=NN=C(CCCCC3=NN=C(N1)S3)S2
Exercise: Arrange these compounds by their pIC50, starting with the largest number. The labels, placed in the requested order, form the answer.
Key: a, b, c
(a: 7.33, b: 7.12, c: 6.65)

I. O=C1Cc2cccc(c2)OC/C=C/COc2cccc(c2)CC(=O)NC2=NN=C(CCCCC3=NN=C(N1)S3)S2
II. C=CCCOc1cccc(CC(=O)Nc2ccc(CCCCc3nnc(NC(=O)Cc4cccc(OCCC=C)c4)s3)nn2)c1
Exercise: Sorting ascending by pIC50, which comes first: I or II ? When you have decided, please share the label of that item.
Key: II
(II: 7.17, I: 7.39)

1. O=C1Cc2ccc(cc2)OC/C=C/COc2ccc(cc2)CC(=O)Nc2nnc(s2)CCCCc2nnc(s2)N1
2. O=C1Cc2ccc(cc2)OCCCC/C=C/CCCCOc2ccc(cc2)CC(=O)Nc2nnc(s2)CCCCc2nnc(s2)N1
Exercise: Between the entries labelled 1 and 2 , which has a larger pIC50 value on record? In your reply, give the label of the chosen option.
Key: 1

P. O=C1Cc2cccc(c2)OC/C=C/COc2cccc(c2)CC(=O)Nc2nnc(s2)CCCCc2ccc(nn2)N1
Q. O=C1Cc2cccc(c2)OCCC/C=C/CCCOc2cccc(c2)CC(=O)NC2=NN=C(CCCCC3=NN=C(N1)S3)S2
R. O=C1CCc2cccc(c2)OCC/C=C/CCCC(=O)Nc2nnc(s2)CCCCc2ccc(nn2)N1
Exercise: Write the entries in order, lowest recorded pIC50 first. To answer, write out the labels according to the requested order.
Key: R, Q, P

====

ASSAY_DETAILS: Intrinsic aqueous solubility of compound at pH 7.4 by LC-MS based shake-flask method
Type: physicochemical
SETTINGS: read-out: Intrinsic_solubility
PROPERTY: solubility thermodynamic (µg/mL)

Answered examples (5):
>>> recorded_result("O=C1Cc2ccc(cc2)OCCCC/C=C/CCCCOc2ccc(cc2)CC(=O)Nc2nnc(s2)CCCCc2nnc(s2)N1")
0.25
>>> recorded_result("O=C1Cc2cccc(c2)OC/C=C/COc2cccc(c2)CC(=O)Nc2nnc(s2)CCCCc2ccc(nn2)N1")
2.16
>>> recorded_result("O=C1Cc2cccc(c2)OCCC/C=C/CCCOc2cccc(c2)CC(=O)Nc2nnc(s2)CCCCc2ccc(nn2)N1")
1.62
>>> recorded_result("O=C1Cc2cccc(c2)OCC/C=C/CCOc2cccc(c2)CC(=O)Nc2nnc(s2)CCCCc2ccc(nn2)N1")
1.73
>>> recorded_result("O=C1Cc2cccc(c2)OCC/C=C/CCOc2cccc(c2)CC(=O)NC2=NN=C(CCCCC3=NN=C(N1)S3)S2")
0.31

P. O=C1Cc2ccc(cc2)OC/C=C/COc2ccc(cc2)CC(=O)Nc2nnc(s2)CCCCc2nnc(s2)N1
Q. O=C1Cc2ccccc2OCCCC/C=C/CCCCOc2cccc(c2)CC(=O)Nc2nnc(s2)CCCCc2ccc(nn2)N1
Exercise: Problem: Given the entries P and Q , determine which has the lower reported solubility thermodynamic. Returns: label corresponding to the selected item.
Key: P

====

ASSAY_DETAILS: AUC(0 to infinity) in Sprague-Dawley rat at 5 mg/kg, iv measured upto 72 hrs by LC-MS/MS analysis
Format: ADME, organism-based
Set-up: route intravenous, dose 5 mg/kg, time <=72
SETTINGS: Sprague-Dawley, in vivo
PROPERTY: AUC(0-inf) (µg·h/mL)
Answer with a number only, understood to be in µg·h/mL.

Exercise: Consider the compound O=C1Cc2cccc(c2)OCC/C=C/CCOc2cccc(c2)CC(=O)Nc2nnc(s2)CCCCc2ccc(nn2)N1 and give its recorded AUC(0-inf).
Key: 1.67

====

MEASURED_TARGET: Glutaminase kidney isoform, mitochondrial (Homo sapiens) (UniProt O94925)
Sequence (whole entry): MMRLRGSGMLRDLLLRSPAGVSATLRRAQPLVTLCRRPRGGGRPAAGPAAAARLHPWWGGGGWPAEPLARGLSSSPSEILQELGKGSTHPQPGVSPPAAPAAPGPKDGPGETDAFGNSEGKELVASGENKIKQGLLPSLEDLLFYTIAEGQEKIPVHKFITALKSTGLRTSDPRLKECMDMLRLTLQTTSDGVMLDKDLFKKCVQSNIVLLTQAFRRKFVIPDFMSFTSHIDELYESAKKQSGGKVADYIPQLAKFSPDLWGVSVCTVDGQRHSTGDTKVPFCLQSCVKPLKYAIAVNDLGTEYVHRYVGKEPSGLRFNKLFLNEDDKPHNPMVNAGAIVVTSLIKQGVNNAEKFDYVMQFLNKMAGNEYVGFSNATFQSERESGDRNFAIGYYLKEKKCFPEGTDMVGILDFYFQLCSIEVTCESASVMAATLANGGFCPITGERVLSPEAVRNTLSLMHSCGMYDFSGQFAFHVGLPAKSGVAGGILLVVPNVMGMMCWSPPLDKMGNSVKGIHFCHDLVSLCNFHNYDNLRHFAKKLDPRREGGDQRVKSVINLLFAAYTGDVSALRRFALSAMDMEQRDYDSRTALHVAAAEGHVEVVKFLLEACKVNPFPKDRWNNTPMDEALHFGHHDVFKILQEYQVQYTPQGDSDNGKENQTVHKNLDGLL
PROPERTY: ΔTm (°C)

>>> recorded_result("O=C1CCc2cccc(c2)OCC/C=C/CCCC(=O)Nc2nnc(s2)CCCCc2ccc(nn2)N1")
11.7
>>> recorded_result("O=C1Cc2ccccc2OCCCC/C=C/CCCCOc2cccc(c2)CC(=O)Nc2nnc(s2)CCCCc2ccc(nn2)N1")
17.7
>>> recorded_result("O=C1Cc2cccc(c2)OCC/C=C/CCOc2cccc(c2)CC(=O)NC2=NN=C(CCCCC3=NN=C(N1)S3)S2")
15.9
>>> recorded_result("O=C1CCc2cccc(c2)OCCCC/C=C/CCCC(=O)Nc2nnc(s2)CCCCc2ccc(nn2)N1")
16.7
>>> recorded_result("O=C1Cc2ccc(cc2)OCCCC/C=C/CCCCOc2ccc(cc2)CC(=O)Nc2nnc(s2)CCCCc2nnc(s2)N1")
12.9

I. O=C1Cc2cccc(c2)OC/C=C/COc2cccc(c2)CC(=O)NC2=NN=C(CCCCC3=NN=C(N1)S3)S2
II. O=C1Cc2ccc(cc2)OCCC/C=C/CCCOc2ccc(cc2)CC(=O)Nc2nnc(s2)CCCCc2nnc(s2)N1
Exercise: # returns the entry with the larger ΔTm; inputs I and II Answer by quoting the chosen item's label.
Key: I

====

We begin with a simple list: items and their reported bioavailability.
ASSAY_DETAILS: Oral bioavailability in Sprague-Dawley rat at 200 mg/kg measured upto 72 hrs by LC-MS/MS analysis
Type: ADME, organism-based
SETTINGS: in vivo
Number only, in %; omit the unit.

>>> recorded_result("O=C1Cc2cccc(c2)OCC/C=C/CCOc2cccc(c2)CC(=O)Nc2nnc(s2)CCCCc2ccc(nn2)N1")
9

Next item in the queue.
Exercise: Tell me bioavailability reported for O=C(Cc1cccc(OC(F)(F)F)c1)Nc1ccc(CCCCc2nnc(NC(=O)Cc3ccccn3)s2)nn1
Key: 19
